# target.or.test.system: T1, EsCas13d, nuclease-dead (Eubacterium siraeum, UniProt B0MS50, R295A;H300A;R849A;H854A)
# T1 sequence: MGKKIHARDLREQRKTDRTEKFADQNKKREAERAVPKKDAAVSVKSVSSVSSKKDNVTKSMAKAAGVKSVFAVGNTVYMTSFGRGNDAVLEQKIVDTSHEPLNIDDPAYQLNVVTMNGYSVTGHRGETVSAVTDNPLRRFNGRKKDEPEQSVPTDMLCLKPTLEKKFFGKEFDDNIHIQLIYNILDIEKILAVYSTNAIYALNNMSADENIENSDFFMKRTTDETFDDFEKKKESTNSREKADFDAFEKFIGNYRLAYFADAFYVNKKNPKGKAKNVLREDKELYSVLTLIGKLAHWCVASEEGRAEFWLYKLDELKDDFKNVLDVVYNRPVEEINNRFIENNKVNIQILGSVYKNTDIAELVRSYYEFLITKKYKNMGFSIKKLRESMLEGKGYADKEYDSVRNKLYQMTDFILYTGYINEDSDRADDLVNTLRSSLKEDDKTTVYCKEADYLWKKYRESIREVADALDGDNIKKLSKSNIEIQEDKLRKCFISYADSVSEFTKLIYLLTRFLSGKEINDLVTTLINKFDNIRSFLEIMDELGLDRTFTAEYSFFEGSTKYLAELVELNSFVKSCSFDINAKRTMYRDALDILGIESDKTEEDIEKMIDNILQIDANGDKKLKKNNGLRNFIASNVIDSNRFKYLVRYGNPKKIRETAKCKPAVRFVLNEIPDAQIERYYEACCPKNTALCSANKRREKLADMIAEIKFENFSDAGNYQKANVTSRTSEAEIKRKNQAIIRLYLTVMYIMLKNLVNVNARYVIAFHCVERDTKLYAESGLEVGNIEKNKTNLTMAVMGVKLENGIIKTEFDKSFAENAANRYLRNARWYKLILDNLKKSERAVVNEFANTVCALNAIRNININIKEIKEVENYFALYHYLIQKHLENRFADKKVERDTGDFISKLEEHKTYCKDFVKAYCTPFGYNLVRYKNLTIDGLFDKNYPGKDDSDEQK
# assay.method.text: crRNA (strand 1, pre-loaded); Mg2+; 40 mM Tris-HCl pH 7.5, 150 mM NaCl, 6 mM MgCl2, 1 mM DTT, 0.1% Tween-20, 0.2 mg/ml BSA; 25 C; 10 min per concentration, then washed
# reported.conditions: tags: His6-TwinStrep-SUMO cleaved; N-terminal SNAP kept (SNAP-Surface 488); label: 3' end held by stalled T7 RNA polymerase
Overview of recorded pKd for various binders
# pKd is unitless: minus log10 of the molar concentration; print number only

target 1 C2U,A14C (mixed) RNA 1: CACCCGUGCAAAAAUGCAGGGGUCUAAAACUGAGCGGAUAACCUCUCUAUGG RNA 2: GGGAAUGGAUCCACAUCUACGAAUUCGUACCAUAGAGCGGUUAUCCGCUUACCGAGAUCGGAAGAGCACACGU ... 7.10

# context switch: different binder, same pKd
Read off the recorded pKd for target 1 insA 3' of 10,insU 3' of 2 (mixed) RNA 1: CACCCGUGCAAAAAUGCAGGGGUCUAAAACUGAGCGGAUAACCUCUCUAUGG RNA 2: GGGAAUGGAUCCACAUCUACGAAUUCGUACCAUAGAGAGGUUAAUCCGCUCUACCGAGAUCGGAAGAGCACACGU 7.86

Reference for the values: paper PMC10786891
